Ki reference
# system: human recombinant 5-HT2C receptor (Homo sapiens, UniProt P28335)
# Construct: expressed in transfected cells; host or cells: Jump-In HEK cells (membrane preparation)
# Sequence (P28335 33-458): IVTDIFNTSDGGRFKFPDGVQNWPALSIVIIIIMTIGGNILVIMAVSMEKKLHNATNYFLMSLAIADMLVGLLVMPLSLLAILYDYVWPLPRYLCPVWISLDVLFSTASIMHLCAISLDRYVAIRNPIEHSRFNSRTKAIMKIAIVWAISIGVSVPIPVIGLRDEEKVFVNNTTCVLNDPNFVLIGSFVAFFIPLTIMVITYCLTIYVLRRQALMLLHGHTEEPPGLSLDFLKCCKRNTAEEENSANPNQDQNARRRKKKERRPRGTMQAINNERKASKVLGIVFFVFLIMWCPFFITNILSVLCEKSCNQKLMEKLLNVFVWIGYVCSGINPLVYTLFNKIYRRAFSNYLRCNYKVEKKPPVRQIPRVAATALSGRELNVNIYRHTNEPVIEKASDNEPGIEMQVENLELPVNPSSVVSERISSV
# protocol.text: Test Example 2-2: 5-HT2C receptor binding inhibition test ([3H]-Mesulergine; non-specific ligand Ketanserin)
# experimental.conditions: non-specific binding with 500 µmol/L Ketanserin, 37°C, 2 hours
# Method: The Kd value is calculated when the lot of the cell membrane is changed. […] The radioactivity of [^3H]-Mesulergine bound to the 5-HT2C receptor is measured using Microbeta2 (PerkinElmer) at a measurement time of 1 min/well. The Saturation curve is drawn from the measured value, and the Kd value is calculated from the slope of the Scatchard Plot. […]
Express it in nM; write the number only.

The following molecules have reported results that may help.
>  <test.smiles>
Cn1ncc(Br)c1-c1cc(Nc2ncc(Cl)s2)ccc1OCCO

>  <unit.tag>
nM

>  <Ki>
1.16

$$$$
>  <test.smiles>
Cn1ncc(Cl)c1-c1cc(Nc2ncc(C(F)(F)F)cc2F)ncc1OCCO

>  <unit.tag>
nM

>  <Ki>
0.818

$$$$
>  <test.smiles>
Cn1cnc(Br)c1-c1cc(Nc2ncc(Cl)cc2F)ccc1OCCO

>  <unit.tag>
nM

>  <Ki>
1.66

$$$$

Ki value, target or system human recombinant 5-HT2C receptor (Homo sapiens, UniProt P28335), for `Cc1nc(C)c(-c2cc(Nc3ncc(C(F)(F)F)cc3F)ccc2OCCO)c(C)n1` : 1.34

Ki value, target or system human recombinant 5-HT2C receptor (Homo sapiens, UniProt P28335), for `COC(=O)c1cnc(Nc2ccc(OCCO)c(-c3c(Br)cnn3C)c2)c(F)c1` : 1.33
